For each of the compounds below, state its log10 of IC50.
Assay: Antiproliferative activity against human HL60 cells after 96 hrs by SRB assay
Format: functional, cell-based
Settings: HL-60, 96 h
Scale: decimal log of IC50, IC50 in nM.

INPUT: Report log10 of IC50 for COc1cc2c(cc1C(=O)Nc1ccc(N(C)C)cc1)CC[C@H]1C(C)(C)[C@@H](O)CC[C@]21C please.
OUTPUT: 1.60

INPUT: Also COc1cc2c(cc1C(=O)Nc1ccccc1)CC[C@H]1C(C)(C)[C@@H](O)CC[C@]21C , if possible.
OUTPUT: 4.09

INPUT: Can you check COc1ccc(NC(=O)c2cc3c(cc2OC)[C@@]2(C)CC[C@H](O)C(C)(C)[C@@H]2CC3)cc1 next?
OUTPUT: 2.61

INPUT: Moving on to the next compound: COc1cc([C@@H]2c3cc4c(cc3[C@H](O)[C@H]3COC(=O)[C@H]23)OCO4)cc(OC)c1OC [PODOFILOX]
OUTPUT: 2.68

INPUT: Next: COc1cc2c(cc1C(=O)Nc1ccc(C)cc1)CC[C@H]1C(C)(C)[C@@H](O)CC[C@]21C
OUTPUT: 3.55
